target_under_test: T1, HLA-A*0201 HLA class I MHC monomer (iTopia Epitope Discovery System, coated on plate) (human)
T1 construct: Placeholder peptide stripped; also called HLA-A2; MHC class I monomer
procedure_details: iTopia EDS multiparametric score (binding, off-rate, affinity)
measurement_label: iScore
Numbers only.

FLAEASVRG (Synthetic nonapeptide of human nectin4; the range counts on nectin4) [Nectin4 peptide 244 (FLAEASVRG)]    0.533
SASVVVVGV (Synthetic nonapeptide of human nectin4; the range counts on nectin4) [Nectin4 peptide 347 (SASVVVVGV)]    0.708
VLVPPLPSL (Synthetic nonapeptide of human nectin4; the range counts on nectin4) [antigen peptide N4-145 (VLVPPLPSL)]    0.783

Next item in the queue.
# iScore of AMLKCLSEG (Synthetic nonapeptide of human nectin4; the range counts on nectin4) [Nectin4 peptide 266 (AMLKCLSEG)] = 0.667
